# assay: Electrical activity assay on cell lines treated with a given drug. DMSO was used as a vehicle and a control, unblinded dofetilide was used as a control.
# Type: ADME, cell-based
# Set-up: unit not given here
# stated_conditions: human, ipsc-cm, 0.1 µM; concentration (um) 0.1 uM
Exercise: for every item that follows, state its recorded FPDc.
The answer should be written as a number, with no unit following it.

QUERY: # get_value(readout='FPDc', item= COc1cc2c(Nc3ccc(Br)cc3F)ncnc2cc1OCC1CCN(C)CC1 )
RESULT: 48.34

QUERY: Input Cc1cccc(C)c1OCC(C)N (stereo not drawn)
RESULT: 43.08

QUERY: Input CC(C)NCC(O)c1ccc(NS(C)(=O)=O)cc1 (stereo not drawn)
RESULT: 44.43
